Measured hERG current change (%, negative = inhibition) at 10uM, listed per entry.
molecular target: human ether-à-go-go-related gene (hERG) potassium channel (human, UniProt Q12809); experiment: primary screen, population patch clamp on CHO cells stably expressing hERG; higher = less effect of the substance;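 note: peak tail current of the secondary pulse compared with the same well before compound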
Sequence (Q12809 whole entry, looked up): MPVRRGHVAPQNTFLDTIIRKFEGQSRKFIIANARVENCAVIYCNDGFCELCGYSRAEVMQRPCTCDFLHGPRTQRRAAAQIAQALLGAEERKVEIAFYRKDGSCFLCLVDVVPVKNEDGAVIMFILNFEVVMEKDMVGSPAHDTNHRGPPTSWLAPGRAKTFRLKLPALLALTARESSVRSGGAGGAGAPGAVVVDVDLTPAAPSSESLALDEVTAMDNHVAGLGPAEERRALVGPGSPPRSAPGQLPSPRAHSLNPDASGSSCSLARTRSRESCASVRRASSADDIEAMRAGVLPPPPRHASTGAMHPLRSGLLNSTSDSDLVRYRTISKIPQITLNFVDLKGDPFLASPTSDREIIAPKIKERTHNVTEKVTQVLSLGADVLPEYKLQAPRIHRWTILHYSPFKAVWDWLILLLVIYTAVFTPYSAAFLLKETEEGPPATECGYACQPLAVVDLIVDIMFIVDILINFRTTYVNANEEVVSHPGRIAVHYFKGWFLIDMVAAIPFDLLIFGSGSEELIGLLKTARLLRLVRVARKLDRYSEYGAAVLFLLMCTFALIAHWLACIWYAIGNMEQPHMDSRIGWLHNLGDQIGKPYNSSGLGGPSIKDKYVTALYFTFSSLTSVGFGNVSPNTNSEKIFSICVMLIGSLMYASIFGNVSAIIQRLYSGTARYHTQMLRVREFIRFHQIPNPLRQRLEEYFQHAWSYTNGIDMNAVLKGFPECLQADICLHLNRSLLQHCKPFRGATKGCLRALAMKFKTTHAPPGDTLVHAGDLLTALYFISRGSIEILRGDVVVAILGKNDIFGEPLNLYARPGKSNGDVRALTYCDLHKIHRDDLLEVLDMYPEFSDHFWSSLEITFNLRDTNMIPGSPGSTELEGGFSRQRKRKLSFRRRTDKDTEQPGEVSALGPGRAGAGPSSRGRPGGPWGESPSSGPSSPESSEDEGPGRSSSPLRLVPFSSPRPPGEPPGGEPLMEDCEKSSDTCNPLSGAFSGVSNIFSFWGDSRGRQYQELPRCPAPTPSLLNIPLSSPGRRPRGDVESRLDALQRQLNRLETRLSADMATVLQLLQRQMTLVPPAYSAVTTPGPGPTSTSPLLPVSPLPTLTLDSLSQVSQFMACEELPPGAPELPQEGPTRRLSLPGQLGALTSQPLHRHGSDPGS
In all, about 310,000 compounds went through this assay and about 14,000 (4.5%) showed an effect of 50% or more. The effect is printed as a negative number. The sample as a whole holds a higher share of strong results than the screen did.
measured.attribute: hERG current change (%, negative = inhibition) at 10uM (%)

# compound, observed.result
rows = [
    ("COc1cc(CNCCCCO)ccc1OCc1ccccc1F.Cl", -14.2),
    ("CCCNC(=O)C/C(C)=N/NC(=O)COc1ccc(C)cc1Br", -20.9),
    ("O=C(COc1ccc(Cl)cc1Cl)NCc1ccco1", 0.837),
    ("C/C(Cn1nc([N+](=O)[O-])cc1C)=N\\NC(=O)COc1ccc(Cl)cc1Cl", -66.3),
    ("C=CCn1c(C)cc(C(=O)COC(=O)c2cncc(Br)c2)c1C", -55.9),
    ("CCOC(=O)c1ccc(COC(=O)c2cc3ccccc3oc2=O)o1", -48.6),
    ("Cc1cc(C)n(CC(=O)NNC(=O)COc2ccc(Cl)cc2Cl)n1", 3.06),
    ("C/C(CC(=O)NCc1ccco1)=N\\NC(=O)COc1ccc(Cl)cc1Cl", -65.6),
    ("Cl.OCCCCNCc1cc(Br)ccc1OCc1ccccc1F", -24.7),
    ("C/C(Cn1nc([N+](=O)[O-])cc1C)=N\\NC(=O)COc1ccccc1[N+](=O)[O-]", -17.4),
    ("CN(C)S(=O)(=O)c1cc(C(=O)OCCn2cnc3c2c(=O)n(C)c(=O)n3C)ccc1Cl", -39.7),
    ("C=CCn1c(C)cc(C(=O)COC(=O)c2ccc3c(c2)NC(=O)CS3)c1C", 4.69),
    ("O=C(NCC1CCCO1)c1cccs1 (stereo not drawn)", 4.89),
    ("COCCn1c(C)cc(C(=O)COC(=O)c2cncc(Br)c2)c1C", -31.3),
    ("C/C(CC(=O)NCc1ccco1)=N\\NC(=O)c1ccc(Cl)cc1Cl", 8.44),
    ("CC(=O)c1cccc(NC(=O)N2CCC(C(=O)c3ccc(F)cc3)CC2)c1", -28.1),
    ("CCCS(=O)(=O)N1CCN(Cc2ccc(OCc3ccccc3)c(OC)c2)CC1.O=C(O)C(=O)O", -43.2),
    ("O=S(N1CCCCC1)C12CC3CC(CC(C3)C1)C2 (stereo not drawn)", -6.95),
    ("CCCCn1c2c(c(=O)n(C)c1=O)C(CC(=O)OCC(=O)Nc1cccc(C(F)(F)F)c1)C(=O)N2 (stereo not drawn)", -5.56),
    ("COC(=O)C1=C(C)N(CCC2=CCCCC2)C(=O)C1", 1.46),
    ("Cl.OCCCCNCc1cc(Br)ccc1OCc1ccccc1", -61.8),
]

====

Overview of reported hERG current change (%, negative = inhibition) at 10uM across a group of molecules:
target: human ether-à-go-go-related gene (hERG) potassium channel (human); test: primary screen, population patch clamp on CHO cells stably expressing hERG; higher = less effect of the substance;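 note: peak tail current of the secondary pulse compared with the same well before compound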
Hit rate of the full screen: of about 310,000 compounds, about 14,000 (4.5%) showed an effect of 50% or more. Effects have a minus sign here. The list comes from a sample in which strong results are over-represented; it also holds close analogues and randomly drawn compounds.
measured.attribute: hERG current change (%, negative = inhibition) at 10uM (%)

# molecule, observed.result
rows = [
    ("Cc1ccc(OCC(=O)Nc2ccc3c(c2)nc(CCN2CCC(C)CC2)n3C)cc1", -70.6),
    ("N#CCCn1cc(C=C2C(=O)NC(=O)NC2=O)c(-c2ccccc2)n1", 25.2),
    ("Cc1cccc(OCC(=O)Nc2ccc3c(c2)nc(CCN2CCC(C)CC2)n3C)c1", -68.7),
    ("COC(C(=O)Nc1ccc(S(=O)(=O)Nc2ccc(F)cc2)cc1)c1ccccc1 (stereo not drawn)", 0.504),
    ("CC(=O)N1CCN(Cc2nc3cc(NC(=O)COc4cccc(C)c4)ccc3n2C)CC1.Cl", -15.3),
    ("COC(C(=O)Nc1ccc(S(=O)(=O)Nc2ccc(C)c(C)c2)cc1)c1ccccc1 (stereo not drawn)", 15.3),
    ("COc1cc(NC(=O)Cn2cnc3c(nc4n3CCCCC4)c2=O)cc(OC)c1OC", 22.8),
    ("COC(=O)N[C@H](CC(C)=O)c1cccc(C(F)(F)F)c1", 19.5),
    ("CC1CCN(CCc2nc3cc(NC(=O)COc4ccccc4)ccc3n2C)CC1", -68.4),
]

====

biological target: human ether-à-go-go-related gene (hERG) potassium channel (human); assay: primary screen, population patch clamp on CHO cells stably expressing hERG; higher = less effect of the substance;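 note: peak tail current of the secondary pulse compared with the same well before compound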
Out of some 310,000 compounds screened, about 14,000 (4.5%) showed an effect of 50% or more. Effects have a minus sign here. The entries come from a sample that favours strong results as a whole.
measured.attribute: hERG current change (%, negative = inhibition) at 10uM (%)

# molecule, observed.result
rows = [
    ("O=C(CCNC(=O)Cn1ccc2ccccc2c1=O)NCCN1CCN(c2ccccc2F)CC1", 6.8),
    ("CCN(CC)C(=O)CSc1nc2ccccc2c(=O)n1CC", -1.18),
    ("COCCCNC(=O)CN(C1CCCCC1)S(=O)(=O)c1ccc(C)cc1", -0.742),
    ("N/C(=N\\OC(=O)CSc1ccccc1)c1ccccn1", 6.31),
    ("O=C(NCCN1CCN(c2ccccc2)CC1)c1cccn2c(=O)c3ccccc3nc12", -63),
    ("CCN(CC)CCNC(=O)c1ccc(NC(=O)Cc2ccsc2)cc1", 15.6),
    ("CCCC(=O)Nc1ccc(C(=O)N/N=C/c2cccnc2)cc1", -8.24),
    ("CCOC(=O)CSc1nc2ccccc2c(=O)n1CC1CCCO1 (stereo not shown)", -6.58),
    ("OCCOCCNc1ncnc2c1cnn2-c1ccccc1", 9.79),
    ("O=C1NC(=S)N/C1=C/c1cccn1-c1ccc([N+](=O)[O-])cc1", 12.8),
    ("CCOc1cc(-c2ccc(N)c(OCC)c2)ccc1N", -10.2),
    ("CN(C)CCCNc1ncnc2c1c(-c1ccccc1)cn2-c1ccccc1", -64.4),
    ("O=C(NCCN1CCN(c2ccccc2F)CC1)c1cccn2c(=O)c3ccccc3nc12", -71.5),
    ("CCOC(=O)CSc1nc2ccccc2c(=O)n1CC1CCCC1", -67.3),
    ("COc1ccc(-n2cc(-c3ccccc3)c3c(NCCOCCO)ncnc32)cc1", -42.9),
    ("Cn1c(C(=O)NCCN2CCN(c3ccccc3F)CC2)cc2c(=O)n(C)c3ccccc3c21", -4.62),
    ("Cc1ccc(S(=O)(=O)N(C)C)cc1NC(=O)COC(=O)CNC(=O)c1cccs1", 14.5),
    ("OCCOCCNc1ncnc2c1c(-c1ccccc1)cn2-c1ccccc1", -50.6),
    ("O=C(O)c1ccc2cc(-c3ccccc3)[nH]c2c1", -30.8),
    ("COC(=O)c1ccc(NC(=O)C23CC4CC(C2)CC(n2cncn2)(C4)C3)cc1", -22),
    ("O=C(NCCN1CCN(c2ccccc2)CC1)c1cccn2c(=O)c3cc(Cl)ccc3nc12", -45.4),
    ("Cc1sc(NC(=O)c2ccco2)c(CN2CCC(C)CC2)c1C", -16.2),
    ("CCc1ccc(S(=O)(=O)N2CCCC(N3CCN(c4ccc(OC)cc4)CC3)C2)cc1 (stereo not shown)", -65.4),
    ("Cc1ccc(S(=O)(=O)N(C)C)cc1NC(=O)COC(=O)CCC(=O)c1cccs1", -21.8),
    ("CCN(CC)C(=O)CSc1nc2ccccc2c(=O)n1CC1CCCCC1", -61),
    ("CCOc1ccccc1NC(=O)C(Sc1nnnn1C)c1ccccc1 (stereo not shown)", -21.2),
    ("Cc1ccc(OCCC(=O)OCC(=O)Nc2cc(S(=O)(=O)N(C)C)ccc2C)cc1", -26.6),
    ("CC(C)c1ccc(S(=O)(=O)c2n[nH]n3c2nc(=O)c2ccccc23)cc1", -16.7),
    ("COc1ccc(C(=O)Nc2ccc([N+](=O)[O-])cn2)cc1OC", -22.6),
    ("COc1cccc(Nc2cc(N3CCOCC3)c3nonc3c2[N+](=O)[O-])c1", -8.87),
    ("Cc1ccc(NC(=O)COC(=O)Cc2cccs2)cc1S(=O)(=O)N1CCOCC1", -23.5),
    ("Cc1ccc(S(=O)(=O)N(C)C)cc1NC(=O)COC(=O)CSc1ccccc1", -21.3),
    ("O=C(COC(=O)Cc1cccs1)Nc1cccc(S(=O)(=O)N2CCOCC2)c1", 0.0981),
    ("Cc1cccc(C(=O)Oc2ccc(/C=N/NC(=O)c3ccc(O)cc3)cc2)c1", 28.6),
    ("O=C(O)c1cccn2c(=O)c3ccccc3nc12", 13.1),
    ("Cc1ccc(C)c(NC(=O)c2cccc(Oc3ccc([N+](=O)[O-])cc3Cl)c2)c1", -4.21),
    ("COc1cc(C(=O)NCC(=O)OCC(=O)N2CCc3ccccc32)cc(OC)c1OC", 3.43),
    ("CCN(CC(=O)NCc1ccc(F)cc1)CC(=O)Nc1ccccc1-c1ccccc1", -16),
    ("Cc1ccc(S(=O)(=O)N(C)C)cc1NC(=O)COC(=O)Cc1ccc(Br)cc1", -56.7),
    ("CN(CCCNC(=O)c1cc2c(Cl)nc3ccccc3c2s1)Cc1ccccc1", -44.3),
]
